Test system: E. coli ATCC 25922
Experiment: Minimum inhibitory concentration (MIC), E. coli
Format: cell-based, Escherichia coli
Settings: Escherichia coli, ATCC25922, 24 h, read-out: MIC (E. coli)
# maps each entry to its MIC

>>> result("CN(C)CCCOc1ccc(C(C(=O)N2CCNCC2)N(C)Cc2ccc(-c3cccc(NC(=O)c4ccc(-c5ccccc5)cc4)c3)o2)cc1 (stereo not drawn)")
"6 to 13 mM"
>>> result("Cc1ccc(F)cc1-c1ccc(C(=O)Nc2cccc(-c3ccc(C(=O)NC(C(=O)N4CCNCC4)c4ccc(OCCCN(C)C)cc4)o3)c2)cc1 (stereo not drawn)")
"13 to 25 mM"
>>> result("CN(C)CCCOc1ccc(C(NC(=O)c2ccc(-c3cccc(NC(=O)c4ccc(-c5ccccc5)cc4F)c3)o2)C(=O)N2CCNCC2)cc1 (stereo not drawn)")
"3 to 6 mM"
>>> result("CCc1ccc(-c2ccc(C(=O)Nc3cccc(-c4ccc(C(=O)NC(C(=O)N5CCNCC5)c5ccc(OCCCN(C)C)cc5)o4)c3)cc2)cc1 (stereo not drawn)")
"50 to 100 mM"
>>> result("CN(C)CCCOc1ccc(C(NC(=O)c2ccc(-c3cccc(NC(=O)c4ccc(-c5c(F)cccc5F)cc4)c3)o2)C(=O)N2CCNCC2)cc1 (stereo not drawn)")
"3 to 6 mM"

Switching to the query record.
So, CN(C)CCCCC(NC(=O)c1ccc(-c2cccc(NC(=O)c3ccc(-c4ccccc4)cc3)c2)o1)C(=O)N1CCNCC1 (stereo not drawn) ? Its MIC was 50 to 100 mM

###

Test system: S. aureus ATCC 13709
Assay: Minimum inhibitory concentration (MIC), S. aureus
Type: cell-based, Staphylococcus aureus
Settings: Staphylococcus aureus, ATCC13709, 24 h, read-out: MIC (S. aureus)
# Lookup of reported MIC keyed by entry

# annotated cases, reported MIC shown
>>> result("CN(C)CCCOc1ccc(C(NC(=O)c2ccc(-c3cccc(NC(=O)c4ccc(-c5cccc(Cl)c5)cc4)c3)o2)C(=O)N2CCNCC2)cc1 (stereo not shown)")
"13 to 25 mM"
>>> result("CN(C)CCCOc1ccc(C(NC(=O)c2ccc(-c3cccc(NC(=O)c4ccc(-c5c(F)cccc5F)cc4)c3)o2)C(=O)N2CCNCC2)cc1 (stereo not shown)")
"13 to 25 mM"

Reported MIC for CN(C)CCCOc1ccc(C(NC(=O)c2ccc(-c3cccc(NC(=O)c4ccc(-c5ccccc5)cc4F)c3)o2)C(=O)N2CCNCC2)cc1 (stereo not shown) was 6 to 13 mM

Field MIC (entry CN(C)CCCOc1ccc(C(NC(=O)c2ccc(-c3cccc(NC(=O)c4ccc(-c5ccccc5)cc4Cl)c3)o2)C(=O)N2CCNCC2)cc1 (stereo not shown) ) reads 25 to 50 mM

Documented MIC of CN(C)CCCOc1ccc(C(NC(=O)c2ccc(-c3cccc(NC(=O)c4ccc(-c5ccccc5F)cc4)c3)o2)C(=O)N2CCNCC2)cc1 (stereo not shown) : 6 to 13 mM

The reported MIC of the molecule Cc1ccc(F)cc1-c1ccc(C(=O)Nc2cccc(-c3ccc(C(=O)NC(C(=O)N4CCNCC4)c4ccc(OCCCN(C)C)cc4)o3)c2)cc1 (stereo not shown) was 6 to 13 mM

MIC measured on CN(C)CCCOc1ccc(C(NC(=O)c2ccc(-c3cccc(NC(=O)c4ccc(-c5ccccc5)cc4)c3)o2)C(=O)N2CCN(S(C)(=O)=O)CC2)cc1 (stereo not shown) = > 100 mM
